assay: Oral bioavailability in CD1 mouse at 100 mg/kg; type: ADME, organism-based; conditions: in vivo
observable: bioavailability (%)
Respond numerically; units are % and should not be typed.

# input compound: `CCOC(=O)c1ccc(Oc2ccc3c(c2)COB3O)nc1` ; wanted: its bioavailability
10.8

* * *

test: AUC in CD1 mouse at 100 mg/kg, po; format: ADME, organism-based; parameters: dose 100 mg/kg, route oral; conditions: plasma
observable: AUC
Report as: number unit

Form field: reported AUC of `CCOC(=O)c1ccc(Oc2ccc3c(c2)COB3O)nc1`
1660 ng·h/mL

* * *

assay: Cmax in CD1 mouse at 100 mg/kg, sc; format: ADME, organism-based; design: dose 100 mg/kg, route subcutaneous; settings: in vivo
observable: Cmax (ng/mL)
The reply should be a number in ng/mL, with the unit left off.

Reported Cmax for `CCOC(=O)c1ccc(Oc2ccc3c(c2)COB3O)nc1` : what is it?
12700
